Examples of compounds with documented melting point follow.
Recorded Endpoint: melting point

- CCCC1(OCCO)CCNCC1: 72 °C
- CCOC(=O)c1cn(-c2ccc(OC)cc2)c(-c2ccc(OC)cc2)n1: 142 to 143 °C
- NC(=O)CCCN1C(=O)c2ccccc2C1=O: 160 to 162 °C
- CCOC(=O)Cc1ccc(NC(=O)C(COc2cccnc2)NS(=O)(=O)c2ccc(Br)cc2)cc1 (racemic): 168 to 171 °C
- CC(=O)NCc1ccc(CN2CCN(c3ccc([N+](=O)[O-])cc3)CC2)cc1: 152 to 154 °C
- O=C(O)C(=O)Nc1cccc(-c2nnn[nH]2)c1: 240 °C
- Cc1cc(Cl)c(C)c(C(=O)O)c1: 168 to 170 °C
- CCCN1C(=O)N2C(=NCC2c2ccccc2)c2c1ncn2C (stereo unspecified): 152 to 154 °C
- CCN1CCC2(CC1)COc1cc3c(cc12)N(C(=O)c1ccc(-c2ccc(-c4noc(C)n4)cc2C)cc1)CC3: 202 to 204 °C
- CC(C)OC(=O)C1=C2SCC(=CC(=O)Sc3ccccc3)N2CC1: 216 to 220 °C
- CN(c1cccc2cc(C3=NCC(CC(C)(C)O)S3)[nH]c12)S(=O)(=O)c1cccs1 (stereo unspecified): 156 to 158 °C
- N#Cc1ccc2c(CCC3CCN(Cc4ccccc4)CC3)noc2c1: 113 to 114 °C
- CN1c2ccc(CC(=O)O)cc2CCC1c1ccccc1 (stereo unspecified): 110 to 111 °C
- CC(=O)Nc1ccc(-c2ccc(CC34CCCN3C(=O)N(c3cc(Cl)cc(Cl)c3)C4=O)cc2)cc1 (stereo unspecified): 124 °C
- COc1ccc(CCNCCc2ccc(OC)c(OC)c2)cc1OC: 56 to 58 °C
- CCOCCOC(=O)C1=C(C)NC(C=O)=C(C(=O)OCC)C1c1cccc([N+](=O)[O-])c1 (stereo unspecified): 100 to 101 °C
- CC(C)(C)c1nc(C(=O)c2cccs2)nc(C(C)(C)C)c1O: 158 to 159 °C
- COc1cc(OC)nc(NC(=O)NS(=O)(=O)Cc2ccccc2C(=O)N(C)C)n1: 141 to 143 °C
- COc1ccc(CNC(=O)c2cn3c(=O)n(Cc4ccc(Cl)c(Cl)c4)c(=O)cc3s2)cc1: 206 to 207 °C
- CC(=O)NCCCc1nc2cnc3ccc(C)cc3c2n1C: 213 to 215 °C
- O=C1c2ccccc2C(O)N1CCCSc1ccncc1 (stereo unspecified): 132 to 134 °C
- CS(=O)(=O)c1ccc(-n2cnc(Cl)c2-c2ccccc2)cc1: 145 to 146 °C
- CNC(=O)c1ccc(CN2CCN(c3nc(C)c(-c4cc(C)n[nH]4)s3)C2=O)cc1: 236 to 238 °C
- COC(=O)COc1ccc(Cl)c2c1c1c(n2Cc2ccccc2)CCCC1C(N)=O (stereo unspecified): 185 to 186 °C
- COCCn1cc2c(C3C(=O)Nc4ccc(Br)cc43)nc(NCCC3CCCNC3)nc2n1 (stereo unspecified): 270 to 273 °C
- CS(=O)(=O)Nc1ccc(C(=O)NC(=O)N2CCC(Cc3ccccc3)CC2)cc1: 97.5 to 100 °C
- COc1ccccc1NC(=O)Nc1nc(NCc2cccs2)nc(N(CCC(=O)O)Cc2cccc(C)c2)n1: 89 to 95 °C
- O=C(O)c1csc(-c2cccc(Cn3cc(C4c5ccccc5C=Cc5ccccc54)c(=S)[nH]c3=O)c2)n1: 165 °C
- NC(=O)NC1CCC(Cl)CC1 (stereo unspecified): 177 to 178 °C
- Nc1ccc(C(=O)Cn2c(-c3nonc3NCCC(=O)O)nc3ccccc32)cc1: 174 to 177 °C
- Nc1ncnc2c1ncn2OCCCOCP(=O)(O)O: 246 to 249 °C
- CCCCCCCCCCCCCCCCCC(=O)N1CCCCc2nc(-c3ccccc3)sc21: 38 to 40 °C
- CCC(=O)Nc1c(C(=O)c2cccc(Cl)c2)[nH]c2ccc(Cl)cc12: 206 to 208 °C
- O=C(O)c1nc(-c2ccc(Cl)cc2Cl)c(-c2ccccc2)s1: 105 °C
- Oc1ccc(-c2cn(-c3ccncc3)c(-c3ccc(F)cc3)n2)cc1: 230 to 231 °C
- O=c1ccn(CCO)c(Cc2cccc(F)c2)c1O: 235 to 242 °C
- CC(C)(C)c1cc(N)n(-c2ccccc2)n1: 65 to 67 °C
- CCOC(=O)CSc1nc(Cl)cc(Nc2ccccc2)n1: 109 to 114 °C
- CC(C)NC(=O)c1cc(-n2c(=O)cc(C(F)(F)F)[nH]c2=O)c(F)cc1Cl: 234 to 239 °C
- COc1ccc(-c2c(/C=C/C(=O)O)ccc3cc(OC)ccc23)cc1: 248 to 249 °C
- COc1ccc2nc3cc(OC)c(=O)c(Br)c-3sc2c1: 260 to 261 °C
